Target: IDO1 (Homo sapiens (Human))
Assay: IDO1 Enzyme Assay
Conditions: read-out: IDO1 Enzyme Assay, IC50; HIS-tagged recombinant IDO1, 40 nM
IC50 overview

- Smiles: "CC(C)(O)[C@@H](O)CSc1nonc1C(=NO)Nc1ccc(F)c(C#N)c1"
  IC50, nM: 144
- Smiles: "O=C(CSc1nonc1/C(=N/O)Nc1ccc(F)c(Br)c1)NC(CO)CO"
  IC50, nM: 50.9
- Smiles: "N#Cc1cc(N/C(=N\\O)c2nonc2SCCNS(N)(=O)=O)ccc1F"
  IC50, nM: 119
- Smiles: "O=S1(=O)NC[C@H](CSc2nonc2/C(=N/O)Nc2ccc(F)c(Cl)c2)N1"
  IC50, nM: 32
- Smiles: "OCCCCCCSc1nonc1/C(=N/O)Nc1ccc(F)c(Br)c1"
  IC50, nM: 98.5

====

Biological target: IDO1 (Homo sapiens (Human), UniProt P14902)
Sequence (P14902 whole entry): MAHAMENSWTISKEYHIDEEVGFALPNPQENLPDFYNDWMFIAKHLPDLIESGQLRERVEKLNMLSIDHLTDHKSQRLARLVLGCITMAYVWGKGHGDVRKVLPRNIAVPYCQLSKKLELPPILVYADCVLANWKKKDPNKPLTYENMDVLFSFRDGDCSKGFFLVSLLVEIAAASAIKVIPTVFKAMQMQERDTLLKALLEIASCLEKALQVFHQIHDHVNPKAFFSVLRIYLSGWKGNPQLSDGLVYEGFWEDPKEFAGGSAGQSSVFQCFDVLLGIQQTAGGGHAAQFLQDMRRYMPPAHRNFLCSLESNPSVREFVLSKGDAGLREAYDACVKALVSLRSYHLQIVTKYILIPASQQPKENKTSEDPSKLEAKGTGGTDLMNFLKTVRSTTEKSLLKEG
Assay: IDO1 Cellular Assay in Frozen HEK293 Cells Transiently Transfected with Human IDO1
Assay type: cell-based
Conditions: HEK293 cells transiently transfected with human IDO1; read-out: IDO1 HEK293 Cell Assay, IC50
pIC50: −log10 of the molar value.

- Compound: "CCNC(=O)CSc1nonc1C(=NO)Nc1ccc(F)c(Br)c1"
  Relation symbol: "="
  pIC50: 7.59
- Compound: "O=c1[nH]nc(CCSc2nonc2/C(=N/O)Nc2ccc(F)c(Br)c2)o1"
  Relation symbol: "="
  pIC50: 6.88
- Compound: "CNC(=O)CCSc1nonc1/C(=N/O)Nc1ccc(F)c(Br)c1"
  Relation symbol: "="
  pIC50: 7.58
- Compound: "CC(C)OC(=O)OCOP(=O)(O)CCSc1nonc1/C(=N/O)Nc1ccc(F)c(Br)c1"
  Relation symbol: "="
  pIC50: 5.29
- Compound: "CC(O)C(CO)NC(=O)CSc1nonc1/C(=N/O)Nc1ccc(F)c(Br)c1 (centres unmarked)"
  Relation symbol: "="
  pIC50: 6.74
- Compound: "CC(=O)NCCSc1nonc1/C(=N/O)Nc1ccc(F)c(C#N)c1"
  Relation symbol: "="
  pIC50: 7.08
- Compound: "CC(=O)N[C@H](C)CSc1nonc1/C(=N/O)Nc1ccc(F)c(C#N)c1"
  Relation symbol: "="
  pIC50: 6.16
- Compound: "CCCCNC(=O)NCCSc1nonc1C(=NO)Nc1ccc(F)c(Br)c1"
  Relation symbol: "="
  pIC50: 6.94
- Compound: "N#Cc1cc(N/C(=N\\O)c2nonc2SCCNC(=O)C2CC2)ccc1F"
  Relation symbol: "="
  pIC50: 7.04
- Compound: "NS(=O)(=O)NCCSc1nsnc1/C(=N/O)Nc1ccc(F)c(Br)c1"
  Relation symbol: "="
  pIC50: 6.54
- Compound: "OC[C@H](O)CSc1nonc1/C(=N/O)Nc1ccc(F)c(C(F)(F)F)c1"
  Relation symbol: "="
  pIC50: 6.94
- Compound: "NS(=O)(=O)NCCSc1nonc1/C(=N/O)Nc1ccc(F)c(Br)c1"
  Relation symbol: "="
  pIC50: 7.24
- Compound: "NS(=O)(=O)N1CCC(Sc2nonc2/C(=N/O)Nc2ccc(F)c(Br)c2)CC1"
  Relation symbol: "="
  pIC50: 6.94
- Compound: "OC[C@@H](O)CSc1nonc1/C(=N/O)Nc1ccc(F)c(Cl)c1"
  Relation symbol: "="
  pIC50: 7.03
- Compound: "O=S1(=O)CCC(Sc2nonc2/C(=N/O)Nc2ccc(F)c(Br)c2)CC1"
  Relation symbol: "="
  pIC50: 7.11
- Compound: "CC(Sc1nonc1/C(=N/O)Nc1ccc(F)c(Br)c1)C(=O)O (centres unmarked)"
  Relation symbol: "<"
  pIC50: 5.00
- Compound: "COCCNC(=O)CCSc1nonc1/C(=N/O)Nc1ccc(F)c(Br)c1"
  Relation symbol: "="
  pIC50: 7.10
- Compound: "O=C(CSc1nonc1/C(=N/O)Nc1ccc(F)c(Br)c1)NC1CC1"
  Relation symbol: "="
  pIC50: 7.45
- Compound: "N[C@H](CO)CSc1nonc1/C(=N/O)Nc1ccc(F)c(Br)c1"
  Relation symbol: "="
  pIC50: 7.35
- Compound: "CN1C[C@H](CSc2nonc2/C(=N/O)Nc2ccc(F)c(Br)c2)NC1=O"
  Relation symbol: "="
  pIC50: 7.42
- Compound: "O=c1c(NCCSc2nonc2/C(=N/O)Nc2ccc(F)c(Br)c2)c(N2CCCCC2)c1=O"
  Relation symbol: "="
  pIC50: 6.39
- Compound: "ON=C(Nc1ccc(F)c(Br)c1)c1nonc1SCC1CCOCC1"
  Relation symbol: "="
  pIC50: 6.78
- Compound: "O=C(CCSc1nonc1/C(=N/O)Nc1ccc(F)c(Br)c1)NCCO"
  Relation symbol: "="
  pIC50: 7.37
- Compound: "N#Cc1cc(N/C(=N\\O)c2nonc2SC[C@H](O)CO)ccc1F"
  Relation symbol: "="
  pIC50: 6.43
- Compound: "COC(=O)[C@@H](N)CSc1nonc1/C(=N/O)Nc1ccc(F)c(Br)c1"
  Relation symbol: "="
  pIC50: 6.65
- Compound: "O=c1c(NCCSc2nsnc2/C(=N/O)Nc2ccc(F)c(Br)c2)c(NCC2CC2)c1=O"
  Relation symbol: "="
  pIC50: 5.85
- Compound: "ON=C(Nc1ccc(F)c(Br)c1)c1nonc1SCCc1cscn1"
  Relation symbol: "="
  pIC50: 6.78
- Compound: "N#Cc1cc(N/C(=N\\O)c2nonc2SC[C@@H]2CCC(=O)N2)ccc1F"
  Relation symbol: "="
  pIC50: 6.92
- Compound: "CC#CCSc1nonc1C(=NO)Nc1ccc(F)c(Br)c1"
  Relation symbol: "="
  pIC50: 6.73
- Compound: "CNc1c(NCCSc2nonc2/C(=N/O)Nc2ccc(F)c(Br)c2)c(=O)c1=O"
  Relation symbol: "="
  pIC50: 6.69
- Compound: "O=C(NCCSc1nonc1C(=NO)Nc1ccc(F)c(Br)c1)NCc1ccco1"
  Relation symbol: "="
  pIC50: 7.18
- Compound: "O=C(NCCSc1nonc1C(=NO)Nc1ccc(F)c(Br)c1)NC1CCCC1"
  Relation symbol: "="
  pIC50: 6.59
- Compound: "CC(C)OC(=O)[C@H](C)NP(=O)(CCSc1nonc1/C(=N/O)Nc1ccc(F)c(Br)c1)N[C@@H](C)C(=O)OC(C)C"
  Relation symbol: "="
  pIC50: 6.13
- Compound: "CC(=O)N[C@H](CO)CSc1nonc1/C(=N/O)Nc1ccc(F)c(Br)c1"
  Relation symbol: "="
  pIC50: 6.81
- Compound: "N#Cc1cc(N/C(=N\\O)c2nonc2SCCNC(=O)[C@@H]2CC2(F)F)ccc1F"
  Relation symbol: "="
  pIC50: 7.06
